Target Or System: UniProt:Q99572
Sequence (Q99572 whole entry): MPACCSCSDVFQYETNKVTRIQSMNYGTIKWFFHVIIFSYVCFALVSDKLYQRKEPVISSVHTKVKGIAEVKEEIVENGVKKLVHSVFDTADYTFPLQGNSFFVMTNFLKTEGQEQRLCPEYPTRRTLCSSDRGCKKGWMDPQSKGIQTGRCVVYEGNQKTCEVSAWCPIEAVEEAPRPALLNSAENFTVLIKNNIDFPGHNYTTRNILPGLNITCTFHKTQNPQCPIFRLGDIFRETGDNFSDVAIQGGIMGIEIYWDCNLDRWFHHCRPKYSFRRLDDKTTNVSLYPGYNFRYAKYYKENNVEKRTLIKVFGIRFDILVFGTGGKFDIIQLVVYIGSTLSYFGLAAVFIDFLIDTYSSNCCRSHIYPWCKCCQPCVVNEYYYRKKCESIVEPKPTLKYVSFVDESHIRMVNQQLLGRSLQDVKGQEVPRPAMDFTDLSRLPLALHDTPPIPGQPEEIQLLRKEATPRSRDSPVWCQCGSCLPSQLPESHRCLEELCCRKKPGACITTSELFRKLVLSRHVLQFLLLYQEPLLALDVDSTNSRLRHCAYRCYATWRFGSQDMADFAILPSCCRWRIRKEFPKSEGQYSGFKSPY
Procedure Details: P2X7 antagonism in human PBMCs (LPS + Bz-ATP induced IL-1β release, ELISA);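 note: PBMCs from donor human blood, with a further 1.5 h incubation of the cells in the assay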
Format: cell-based
Run Conditions: compound 10 μM, LPS 30 ng/ml, Bz-ATP 0.5 mM
Listed here are molecules together with their documented PBMC 10 μM (% control).
The answer should read as a number with its unit following.

1) C[C@@H]1c2nnn(-c3cncnc3)c2CCN1C(=O)c1cccc(C(F)(F)F)c1Cl (single isomer, unassigned) [Example 334] | 101.8 % control
2) CC1Cc2c(nnn2-c2cc(F)ccn2)CN1C(=O)c1cccc(Cl)c1Cl (centres unmarked) [Example 173] | 8.8 % control
3) COc1cccnc1-n1nnc2c1CCN(C(=O)c1cccc(C(F)(F)F)c1Cl)C2C (centres unmarked) [Example 260] | 1.4 % control
4) CC1c2nnn(-c3cc[nH]n3)c2CCN1C(=O)c1cccc(C(F)(F)F)c1Cl (centres unmarked) [Example 85] | 24.7 % control
5) Cc1c(C(=O)N2Cc3nnn(-c4ncc(F)cn4)c3C[C@H]2C)cccc1C(F)(F)F (single isomer, unassigned) [Example 207] | 45.0 % control
6) Cc1cncc(-n2nnc3c2CCN(C(=O)c2cccc(Cl)c2Cl)C3C)n1 (centres unmarked) [Example 180] | −3.7 % control
7) Cc1ccnc(-n2nnc3c2CCN(C(=O)c2cccc(Cl)c2Cl)C3C)c1 (centres unmarked) [Example 237] | −5.1 % control

Kindly review the next molecule as well.
Lab request: please report PBMC 10 μM (% control) under test system UniProt:Q99572 for CC1c2ncn(-c3ccc(F)cn3)c2CCN1C(=O)c1ccc(C(C)(C)C)cc1 (centres unmarked) [Example 265] 76.5 % control
